B1: TPD52L2 (parent)
chain: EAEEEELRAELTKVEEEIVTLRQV

- Variants of: B1
- method: protein stability index of a GFP-peptide fusion (GPS, HEK-293T) (PSI 1-6); higher = more stable;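 further: lentivirally expressed fusions sorted by FACS into six bins by GFP to DsRed ratio, PSI derived from sequencing read proportions per bin multiplied by bin number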
- recordedConditions: c terminus: a fixed tail appended
Would you mind telling me the reported protein stability index of each entry?
Answer field: number only, no words.

I have this variant here, "L21P" , and I need its recorded protein stability index.
5.57

I have this variant here, "Q23L" , and I need its recorded protein stability index.
3.25

I have this variant here, "E15A" , and I need its recorded protein stability index.
4.41

I have this variant here, "L11W" , and I need its recorded protein stability index.
5

I have this variant here, "E17H" , and I need its recorded protein stability index.
3.44

I have this variant here, "I18Y" , and I need its recorded protein stability index.
5.12

I have this variant here, "E6D" , and I need its recorded protein stability index.
2.98

I have this variant here, "E10N" , and I need its recorded protein stability index.
4.91

I have this variant here, "E10Y" , and I need its recorded protein stability index.
4.05

I have this variant here, "E17V" , and I need its recorded protein stability index.
4.05

I have this variant here, "E16F" , and I need its recorded protein stability index.
2.76
